Values from patent EP4667464A1

# System: lung cancer cell line NCI-H358 having the KRAS G12C variant
# assay.protocol: Cancer cell growth inhibition, 3D spheroids (CellTiter-Glo 3D)
# Format: cell-based
# settings: Homo sapiens, NCI-H358, 120 h; 3D spheroids, 0.002-10 µM, 5 days; read-out: H358 cell viability
pIC50: −log10 of the molar value.
Entries annotated with measured pIC50

Please look up its pIC50: C[C@@H](NC(=O)c1cc(C2CC2)c(=O)n(-c2cncc(-c3cnnn3C)c2)n1)c1cccc(C(F)(F)F)c1F [Example 7-4]
> 6.00

Please look up its pIC50: [2H]C([2H])([2H])n1nncc1-c1cncc(-n2nc(C(=O)N[C@H](C)c3cccc(C(F)F)c3F)ccc2=O)c1 [Example 1-6]
< 5.52

Please look up its pIC50: Cc1cc(C(=O)N[C@H](C)c2cccc(C(F)(F)F)c2F)nn(-c2cncc(-c3cnnn3C)c2)c1=O [Example 7-3]
> 6.00

Please look up its pIC50: C[C@@H](NC(=O)c1cc(-c2ccccc2)c(=O)n(-c2cncc(-c3cnnn3C)c2)n1)c1cccc(C(F)(F)F)c1F [Example 1-63]
> 6.00
